Values from the supplement of paper PMC8728848

TARGET_OF_ASSAY: GalNAc(b1-3)GalNAc
METHOD_NOTES: glycan array binding signal (z-score within array); higher = stronger binding
CONDITION_DESCRIPTION: glycan notation: IUPAC condensed, linker removed
The entries come from a sample that favours the strongest signals as a whole.

[
  {
    "BINDER": "ArathEULS3 (Arabidopsis thaliana), Q945P1 (protein) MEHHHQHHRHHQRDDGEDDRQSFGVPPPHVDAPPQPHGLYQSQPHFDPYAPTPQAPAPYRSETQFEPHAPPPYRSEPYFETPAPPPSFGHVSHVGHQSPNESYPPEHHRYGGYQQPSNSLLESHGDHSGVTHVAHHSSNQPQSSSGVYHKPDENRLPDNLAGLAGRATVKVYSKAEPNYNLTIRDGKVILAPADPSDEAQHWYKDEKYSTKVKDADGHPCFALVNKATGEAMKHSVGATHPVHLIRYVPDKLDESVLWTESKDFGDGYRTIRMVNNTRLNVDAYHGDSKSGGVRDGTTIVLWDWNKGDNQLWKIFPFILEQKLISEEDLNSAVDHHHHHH",
    "glycan array binding signal (z-score)": 0.511
  },
  {
    "BINDER": "Layilin (Mus musculus), Q8C351 (protein) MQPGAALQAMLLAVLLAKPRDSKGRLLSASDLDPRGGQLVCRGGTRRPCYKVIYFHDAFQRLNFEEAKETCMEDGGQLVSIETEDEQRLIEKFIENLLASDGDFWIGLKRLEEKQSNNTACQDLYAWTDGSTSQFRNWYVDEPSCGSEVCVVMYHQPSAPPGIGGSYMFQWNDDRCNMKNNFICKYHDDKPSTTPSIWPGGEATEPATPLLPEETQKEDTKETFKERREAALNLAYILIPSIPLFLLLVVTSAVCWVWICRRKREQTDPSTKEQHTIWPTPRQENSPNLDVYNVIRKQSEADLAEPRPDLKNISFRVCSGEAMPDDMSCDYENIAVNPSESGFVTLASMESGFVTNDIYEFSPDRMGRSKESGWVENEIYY",
    "glycan array binding signal (z-score)": -0.932
  }
]
